Reference source for all entries: patent US12023336B2

# System: HIV-1NL4.3
# protocol-details: microbe, parasite or virus in culture
# Type: cell-based
# particulars: 10 μM; HIV-1NL4.3 0.1 MOI; TZM-bl cells; luminescence 48 h
Counter-ions that a name gives are not always drawn.
Would you mind telling me the reported % Inhibition at 10 μM Concentration of each entry?
Express it in %; write the number only.

Output measured % Inhibition at 10 μM Concentration for this item: Cl.NCCCC(N)(C(=O)O)C(F)F (racemic) 97.06

Output measured % Inhibition at 10 μM Concentration for this item: `O=c1oc(Cl)c(Cl)c2ccccc12` 97.06

Output measured % Inhibition at 10 μM Concentration for this item: CNCCNS(=O)(=O)c1cccc2cnccc12.Cl.Cl [H-8 dihydrochloride] 99.57

Output measured % Inhibition at 10 μM Concentration for this item: `Oc1ccc(/C=C/c2ccc(/C=C/c3ccc(O)cc3)c(Br)c2)cc1` 96.16

Output measured % Inhibition at 10 μM Concentration for this item: N[C@@H](Cn1oc(=O)[nH]c1=O)C(=O)O [(+)-Quisqualic acid] 99.30

Output measured % Inhibition at 10 μM Concentration for this item: NC(Cc1cc(O)c(O)cc1O)C(=O)O (racemic) [6-Hydroxy-DL-DOPA] 96.67

Output measured % Inhibition at 10 μM Concentration for this item: `CC(=O)OC[C@H]1O[C@@H]([S-])[C@H](OC(C)=O)[C@@H](OC(C)=O)[C@@H]1OC(C)=O.CCP(CC)CC.[Au+]` 96.08

Output measured % Inhibition at 10 μM Concentration for this item: `O=Nc1ccc2oc(=O)ccc2c1` 99.15

Output measured % Inhibition at 10 μM Concentration for this item: CCc1ccccc1OC[C@@H](O)CN[C@H]1CCCc2ccccc21.O=C(O)C(=O)O [SR 59230A oxalate] 97.52

Output measured % Inhibition at 10 μM Concentration for this item: `CCOC(=O)c1ncn2c1[C@@H]1CCCN1C(=O)c1cc(OC)ccc1-2` 97.43

Output measured % Inhibition at 10 μM Concentration for this item: `O=[N+]([O-])/C=C/c1ccc2c(c1)OCO2` 99.63

Output measured % Inhibition at 10 μM Concentration for this item: COc1ccc(-c2cc3nccn3c(Nc3ncccc3C(N)=O)n2)cc1OC.Cl.O [BAY 61-3606 hydrochloride hydrate] 95.05

Output measured % Inhibition at 10 μM Concentration for this item: CC(C)NC[C@H](O)COc1cccc2ccccc12.Cl [(S)-Propranolol hydrochloride] 99.30

Output measured % Inhibition at 10 μM Concentration for this item: O=C(O)/C=C\C(=O)O.O=C1/C(=C/c2ccccc2)C[C@@]2(O)[C@H]3Cc4ccc(O)c5c4[C@@]2(CCN3CC2CC2)[C@H]1O5 [BNTX maleate salt hydrate] 99.26

Output measured % Inhibition at 10 μM Concentration for this item: Nc1nc2c(ncn2CCOCP(=O)(O)O)c(=O)[nH]1 [PMEG hydrate] 99.36

Output measured % Inhibition at 10 μM Concentration for this item: `O=C(Nc1cccc(C(=O)Nc2ccc(S(=O)(=O)O)c3cc(S(=O)(=O)O)cc(S(=O)(=O)O)c23)c1)Nc1cccc(C(=O)Nc2ccc(S(=O)(=O)O)c3cc(S(=O)(=O)O)cc(S(=O)(=O)O)c23)c1` 95.77

Output measured % Inhibition at 10 μM Concentration for this item: `CC(C)[C@H]1c2ccc(F)cc2CC[C@@]1(CCN(C)CCCc1nc2ccccc2[nH]1)OC(=O)C1CC1` 97.75

Output measured % Inhibition at 10 μM Concentration for this item: COc1ccccc1CNCCCCCCNCCCCCCCCNCCCCCCNCc1ccccc1OC [Methoctramine tetrahydrochloride] 98.94

Output measured % Inhibition at 10 μM Concentration for this item: CC(C)NC[C@@H](O)c1ccc(O)c(O)c1.O=C(O)C(O)C(O)C(=O)O [S(+)-Isoproterenol (+)-bitartrate] 97.10

Output measured % Inhibition at 10 μM Concentration for this item: `Cn1c(=O)c(-c2c(Cl)cccc2Cl)cc2cnc(Nc3ccc(N4CCOCC4)cc3)nc21` 96.16

Output measured % Inhibition at 10 μM Concentration for this item: `Cc1ccc(S(=O)(=O)N[C@@H](Cc2ccccc2)C(=O)CCl)cc1` 98.76

Output measured % Inhibition at 10 μM Concentration for this item: CC1=C(/C=C/C(C)=C/C=C/C(C)=C/C(=O)Nc2ccc(O)cc2)C(C)(C)CCC1 [Retinoic acid p-hydroxyanilide] 98.52

Output measured % Inhibition at 10 μM Concentration for this item: CCCN1CCC[C@@H](c2cccc(O)c2)C1.Cl [S(−)-3PPP hydrochloride] 98.60

Output measured % Inhibition at 10 μM Concentration for this item: `Nc1ccc(-c2nc3ccc(-c4nc5ccc(N)cc5[nH]4)cc3[nH]2)cc1` 99.67

Output measured % Inhibition at 10 μM Concentration for this item: `CS(=O)(=O)c1cccc(CNc2nc(Nc3ccc4c(c3)CCC(=O)N4)ncc2C(F)(F)F)c1` 97.23
